System: LPETG (Abz-LPETGK(Dnp)-CONH2)
assay: In vitro sortase kinetics HPLC assay, LPETG substrate
Assay type: biochemical
condition_details: LPETG substrate
observed_property: KH,LPETG
Please give the number followed by its unit.

Recorded results for 2 molecules are shown here.
Fill in the blank: the reported KH,LPETG of eSrtA(4S-9): P94R, N98D, S102C, A104V, A118T, F122A, K134R, F144L, D160N, D165A, I182V, E189F, K190E, K196T (protein) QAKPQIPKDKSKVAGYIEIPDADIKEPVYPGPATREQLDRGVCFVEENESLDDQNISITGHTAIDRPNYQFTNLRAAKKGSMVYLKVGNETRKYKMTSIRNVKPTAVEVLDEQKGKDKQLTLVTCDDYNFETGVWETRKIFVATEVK is ____.
295 ± 18 µM

Next up: eSrtA (protein) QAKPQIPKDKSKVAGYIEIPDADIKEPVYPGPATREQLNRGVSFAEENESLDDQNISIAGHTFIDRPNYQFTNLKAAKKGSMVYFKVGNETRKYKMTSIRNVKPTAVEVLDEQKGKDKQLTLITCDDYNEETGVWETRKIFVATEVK
32.8 ± 2.4 µM

Now let's try a different one.
# query: KH,LPETG of entry SrtA: wild-type Staphylococcus aureus sortase A (SEQ ID NO: 1) (protein, S. aureus) MKKWTNRLMTIAGVVLILVAAYLFAKPHIDNYLHDKDKDEKIEQYDKNVKEQASKDKKQQAKPQIPKDKSKVAGYIEIPDADIKEPVYPGPATPEQLNRGVSFAEENESLDDQNISIAGHTFIDRPNYQFTNLKAAKKGSMVYFKVGNETRKYKMTSIRDVKPTDVEVLDEQKGKDKQLTLITCDDYNEKTGVWEKRKIFVATEVK
14.3 ± 0.8 µM
